SYSTEM_UNDER_TEST: T1, Human fibrinogen protein (ThermoFisher, RP-43142) (human, UniProt P02671 20-629; P02675 31-491; P02679 27-453, limits assumed, natural sulfotyrosines)
T1 construct: mature; Native dimer with 3 pairs of non-identical chains; also called gamma-fibrinogen; γ fibrinogen protein
T1 sequence (looked up) 1: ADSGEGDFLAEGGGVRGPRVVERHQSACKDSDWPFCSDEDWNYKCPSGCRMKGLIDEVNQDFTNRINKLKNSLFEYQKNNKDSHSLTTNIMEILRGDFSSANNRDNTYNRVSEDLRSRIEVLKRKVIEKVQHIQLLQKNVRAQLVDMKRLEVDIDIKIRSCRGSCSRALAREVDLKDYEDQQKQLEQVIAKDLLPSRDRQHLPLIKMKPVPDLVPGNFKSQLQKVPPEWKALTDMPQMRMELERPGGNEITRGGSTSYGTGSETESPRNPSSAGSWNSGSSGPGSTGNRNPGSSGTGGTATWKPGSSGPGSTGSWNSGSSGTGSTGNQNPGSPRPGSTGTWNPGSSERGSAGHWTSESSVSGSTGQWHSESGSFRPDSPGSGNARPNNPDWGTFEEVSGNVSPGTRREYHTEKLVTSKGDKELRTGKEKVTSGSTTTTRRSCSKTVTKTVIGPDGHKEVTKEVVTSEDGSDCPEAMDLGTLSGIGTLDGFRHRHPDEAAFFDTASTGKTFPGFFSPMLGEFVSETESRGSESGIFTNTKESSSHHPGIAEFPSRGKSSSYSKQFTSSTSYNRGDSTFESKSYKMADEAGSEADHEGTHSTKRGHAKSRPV
T1 sequence (looked up) 2: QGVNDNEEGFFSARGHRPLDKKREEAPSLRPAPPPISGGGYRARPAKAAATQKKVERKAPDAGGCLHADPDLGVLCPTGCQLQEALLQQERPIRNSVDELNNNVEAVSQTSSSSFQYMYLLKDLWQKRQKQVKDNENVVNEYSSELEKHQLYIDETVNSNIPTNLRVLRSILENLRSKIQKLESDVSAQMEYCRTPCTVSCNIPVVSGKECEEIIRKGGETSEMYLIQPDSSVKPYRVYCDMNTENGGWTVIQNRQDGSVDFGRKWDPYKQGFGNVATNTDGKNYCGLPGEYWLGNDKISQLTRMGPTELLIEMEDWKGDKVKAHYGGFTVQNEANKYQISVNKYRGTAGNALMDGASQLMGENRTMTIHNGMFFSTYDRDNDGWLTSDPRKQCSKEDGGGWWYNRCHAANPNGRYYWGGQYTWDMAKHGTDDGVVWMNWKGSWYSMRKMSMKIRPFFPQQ
T1 sequence (looked up) 3: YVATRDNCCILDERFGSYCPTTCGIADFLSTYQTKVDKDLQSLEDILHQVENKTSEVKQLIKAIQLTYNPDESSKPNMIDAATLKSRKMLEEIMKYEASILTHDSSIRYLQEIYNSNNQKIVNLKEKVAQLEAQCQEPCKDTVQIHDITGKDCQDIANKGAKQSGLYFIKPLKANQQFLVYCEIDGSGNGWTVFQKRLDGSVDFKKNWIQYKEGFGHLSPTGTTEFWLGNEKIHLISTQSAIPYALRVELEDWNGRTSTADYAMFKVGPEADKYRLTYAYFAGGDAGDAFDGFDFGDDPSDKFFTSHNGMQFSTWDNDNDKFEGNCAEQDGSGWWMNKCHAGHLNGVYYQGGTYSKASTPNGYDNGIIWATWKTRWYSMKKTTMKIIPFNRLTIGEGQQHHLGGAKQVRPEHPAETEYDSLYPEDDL
EXPERIMENT_NOTES: ELISA, 50 nM mAb
PARAMETER_MEASURED: binding normalized to PSGL-1
Please state the value as a number alone, without comment.

Query: Read the entry 10B03 (antibody, IgG4, V domains shown) VH: EVKLLESGGDLVQPGGSLRLSCAASGLTFSNYAMSWVRQAPGKGLEWVSAISGSGDNTYYADSVKGRFTISRDNSKNTLYLQMNSLRADDTAVYFCAKRDSWGQGTLVTVSS VL: QAVLTQPPSASGTPGQRVTISCSGSTSNIGSRDVYWYQHLPGTAPKLVIYRNDQRPSGVPDRFSGSKSGTSASLAISGLRSEDDADYYCAVWDNSLRGRVFGGGTKLTVL and write its reported binding normalized to PSGL-1.
Result: 0.68

Hello, the source for this data is patent US20220396632A1, in case you need it.
